Experiment description: in vitro
Experimental parameters: human, CC50 (EV-D68 US/KY/14-18953 row group)
Experimental endpoint: CC50 (µM)
The reply should be a number in µM, with the unit left off.

{"columns": ["Structure notation", "Numeric readout"],
 "data": [
  ["CC(C)n1ncc2c(C(=O)NCCN(C)C)cc(C3CC3)nc21", 200]
]}

Okay, next one:
[ask] Which CC50 value is on record for CNCCNC(=O)c1cc(C2CC2)nc2c1cnn2C(C)C ?
[reply] 236

====

Experiment description: in vitro
Experimental parameters: human, CC50, in RD cells (Anti-EV-A71)
// values below are reported CC50

Here's what some known entries look like.
{"columns": ["Compound", "CC50"],
 "data": [
  ["Cc1cc(C(=O)NC2CN(C)C2)c2cnn(C(C)C)c2n1 [Compound 12c]", "> 300 µM"],
  ["Cc1cc(C(=O)NCCN)c2cnn(C(C)C)c2n1 [Compound 12e]", "> 300 µM"],
  ["CC(CN(C)C)NC(=O)c1cc(C(C)C)nc2c1cnn2C(C)C (stereo not shown) [Compound 10c]", "70.3 µM"],
  ["CNCCNC(=O)c1cc(C2CC2)nc2c1cnn2C(C)C", "236 µM"]
]}

[ask] Value lookup for CC50; key = CC(C)c1cc(C(=O)NCCN)c2cnn(C(C)C)c2n1 [Compound 10e]
[reply] 170 µM

[ask] Ok, now CC(C)n1ncc2c(C(=O)NC3CCN(C)C3)cc(C3CC3)nc21 (stereo not shown)
[reply] 20.7 µM

[ask] How about CC(C)n1ncc2c(C(=O)NCCN(C)C)cc(C3CC3)nc21 ?
[reply] 200 µM

[ask] // repeat for CC(CN(C)C)NC(=O)c1cc(C2CC2)nc2c1cnn2C(C)C (stereo not shown) and report
[reply] 72.6 µM

[ask] Again, but for CC(C)n1ncc2c(C(=O)NCCN3CCCC3)cc(C3CC3)nc21
[reply] 46.5 µM

[ask] Similarly, CNCCNC(=O)c1cc(C(C)C)nc2c1cnn2C(C)C [Compound 10d] ?
[reply] > 100 µM

[ask] Entry CC(C)n1ncc2c(C(=O)NCCN)cc(C(C)(C)C)nc21 [Compound 11b] please
[reply] 24.6 µM

[ask] Entry to check: Cc1cc(C(=O)NC2CCN(C)C2)c2cnn(C(C)C)c2n1 (stereo not shown) [Compound 12b]
[reply] > 300 µM

[ask] Record: CC(C)n1ncc2c(C(=O)NCCN(C)C)cc(C(C)(C)C)nc21 [Compound 11a]
[reply] 31.4 µM

[ask] Now the compound CCCn1ncc2c(C(=O)NCCN(C)C)cc(C3CC3)nc21
[reply] 57.7 µM

[ask] Now the same for CNCCCNC(=O)c1cc(C2CC2)nc2c1cnn2C(C)C
[reply] 183 µM

[ask] Entry COCCNC(=O)c1cc(C2CC2)nc2c1cnn2C(C)C please
[reply] 178 µM

[ask] For CNCCNC(=O)c1cc(C)nc2c1cnn2C(C)C [Compound 12d] then?
[reply] > 300 µM

[ask] // next record Cc1nn(C(C)(C)C)c2nc(C3CC3)cc(C(=O)NCCN(C)C)c12 [Compound 18a]
[reply] 45.2 µM

[ask] Now consider CC(CN)NC(=O)c1cc(C(C)C)nc2c1cnn2C(C)C (stereo not shown) [Compound 10f] and answer again.
[reply] 118 µM

Data credit: patent US11834451B2
